Value source: the supplement of paper PMC8728848

- experimental_system: Neu5Gc(a2-3)Gal(b1-4)[Fuc(a1-3)]GlcNAc
- assay_notes: glycan array binding signal (z-score within array); higher = stronger binding
- test_settings: glycan notation: IUPAC condensed, linker removed
The entries come from a sample that favours the strongest signals as a whole.
outcome_measure: glycan array binding signal (z-score)
The answer should be a number; do not append a unit.

The following binders have reported results that may help.
Q: Quick one: glycan array binding signal (z-score) for CD34 (Homo sapiens), P28906 (protein) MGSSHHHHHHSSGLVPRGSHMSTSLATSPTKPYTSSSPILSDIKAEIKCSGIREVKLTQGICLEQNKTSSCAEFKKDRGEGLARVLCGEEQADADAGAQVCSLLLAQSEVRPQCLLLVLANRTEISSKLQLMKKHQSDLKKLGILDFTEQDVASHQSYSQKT ?
Result: 1.71

Q: Would you kindly share the measured glycan array binding signal (z-score) for B936 (Bifidobacterium sp) (protein) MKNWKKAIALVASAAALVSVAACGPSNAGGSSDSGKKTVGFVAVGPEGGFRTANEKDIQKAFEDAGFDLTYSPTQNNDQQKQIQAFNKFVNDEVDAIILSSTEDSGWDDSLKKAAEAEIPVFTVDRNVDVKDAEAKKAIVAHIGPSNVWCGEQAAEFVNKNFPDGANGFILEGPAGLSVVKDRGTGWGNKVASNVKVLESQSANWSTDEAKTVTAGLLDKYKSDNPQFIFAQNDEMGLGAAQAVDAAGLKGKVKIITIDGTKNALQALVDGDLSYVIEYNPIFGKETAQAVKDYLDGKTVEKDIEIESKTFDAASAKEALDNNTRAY ?
Result: -0.593

Q: Would you kindly share the measured glycan array binding signal (z-score) for ACA (Amaranthus caudatus) (protein) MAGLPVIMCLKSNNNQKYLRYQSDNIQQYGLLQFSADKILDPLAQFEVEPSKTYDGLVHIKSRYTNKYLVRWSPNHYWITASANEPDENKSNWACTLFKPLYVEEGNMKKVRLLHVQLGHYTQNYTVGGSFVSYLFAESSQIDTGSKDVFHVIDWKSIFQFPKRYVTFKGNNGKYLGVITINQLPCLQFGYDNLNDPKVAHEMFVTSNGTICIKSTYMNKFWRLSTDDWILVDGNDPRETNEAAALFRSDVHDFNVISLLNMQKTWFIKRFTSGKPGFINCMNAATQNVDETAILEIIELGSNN ?
Result: -0.167

More entries:
Q: Entry LysMD3 (Homo sapiens), Q7Z3D4 (protein) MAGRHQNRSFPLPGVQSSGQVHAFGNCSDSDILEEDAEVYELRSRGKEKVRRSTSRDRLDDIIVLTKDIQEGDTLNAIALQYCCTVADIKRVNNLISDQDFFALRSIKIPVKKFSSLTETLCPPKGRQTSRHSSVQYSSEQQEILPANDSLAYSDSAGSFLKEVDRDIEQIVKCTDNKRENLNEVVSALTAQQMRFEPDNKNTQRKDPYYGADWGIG has what glycan array binding signal (z-score)?
Result: -0.174
